# Assay: Metabolic stability in rat liver microsomes assessed as compound metabolism after 20 mins incubation in presence of 1 mM NADPH
# Type: ADME
# Run Conditions: liver microsomes, read-out: Drug metabolism
Reported metabolised at 20 min by item:
State just the number; it will be interpreted in %.

## Task Form field: reported metabolised at 20 min of "CCCC(=O)c1cnn(-c2ccc(NC(=O)c3cn(CC(=O)N4CCN(C)CC4)c4cc(C)c(Cl)cc34)cc2)c1C"
## Result 23

## Task Lookup "CCCC(=O)c1cnn(-c2ccc(NC(=O)c3cn(CC(=O)N4CCN(C)CC4)c4ccc(C(F)(F)F)cc34)cc2)c1C"
## Result 14

## Task Proceed to "CCCC(=O)c1cnn(-c2ccc(NC(=O)c3cn(CC(=O)N4C[C@@H]5C[C@@H](O)CN5C[C@@H]4C)c4ccc(C)cc34)cc2)c1C"
## Result 25

## Task Same for "CCCC(=O)c1cnn(-c2ccc(NC(=O)c3cn(CC(=O)N4CCN(C)CC4)c4cc(F)c(Cl)cc34)cc2)c1C"
## Result 21

====

# Assay: Metabolic stability in rat liver microsomes assessed as compound metabolism after 20 mins incubation in presence of 1 mM NADPH
# Format: ADME
# Run Conditions: liver microsomes, read-out: Drug metabolism
Quantity Measured: metabolised at 20 min (%)
# output: bare number, implied unit %

Worked cases, metabolised at 20 min given:
{"Compound": "CCC(=O)c1cnn(-c2ccc(NC(=O)c3cn(CC(=O)N4CCN(C)CC4)c4ccc(Cl)cc34)cc2)c1C", "metabolised at 20 min (%)": 25}
{"Compound": "CCCC(=O)c1cnn(-c2ccc(NC(=O)c3cn(CC(=O)N4CCN(CCOC)CC4)c4ccc(Cl)cc34)cc2)c1C", "metabolised at 20 min (%)": 11}
{"Compound": "CCCC(=O)c1cnn(-c2ccc(NC(=O)c3cn(CC(=O)N4CCN(C)CC4)c4ccc(Cl)cc34)nn2)c1C", "metabolised at 20 min (%)": 11}
{"Compound": "CCCC(=O)c1cnn(-c2ccc(NC(=O)c3cn(CC(=O)N4CCN(CCF)CC4)c4ccc(C)cc34)cc2)c1C", "metabolised at 20 min (%)": 36}
{"Compound": "CCCC(=O)c1cnn(-c2ccc(NC(=O)c3cn(CC(=O)N4CCN(Cc5ccc(F)cc5)CC4)c4ccc(C)cc34)cc2)c1C", "metabolised at 20 min (%)": 27}
{"Compound": "CCCC(=O)c1cnn(-c2ccc(NC(=O)c3cn(CC(=O)N4CCN(CCOC)CC4)c4ccc(C)cc34)cc2)c1C", "metabolised at 20 min (%)": 32}
{"Compound": "CCCC(=O)c1cnn(-c2ccc(NC(=O)c3cn(CC(=O)N4CCN(C)C(C)C4)c4ccc(C)cc34)cc2)c1C (stereo not drawn)", "metabolised at 20 min (%)": 45}

## Task So what's the measured metabolised at 20 min for this one? "CCCC(=O)c1cnn(-c2ccc(NC(=O)c3cn(CC(=O)N4CCN(CC(=O)N(C)C)CC4)c4ccc(Cl)cc34)cc2)c1C"
## Result 7

====

# Assay: Permeability across human Caco2 cells
# Type: ADME, cell-based
# Run Conditions: Caco-2, read-out: permeability
Please use 1 (yes) for Papp under 3 ×10⁻⁶ cm/s and 0 (no) for everything else, ties included.

Examples from the recorded data:
{"Compound": "CCCC(=O)c1cnn(-c2ccc(NC(=O)c3cn(CC(=O)N4CCN(CCO)CC4)c4ccc(C)cc34)cc2)c1C", "Label Value": "1 (yes)"}
{"Compound": "CCCC(=O)c1cnn(-c2ccc(NC(=O)c3cn(CC(=O)N4CCN(C)C(C)C4)c4ccc(C)cc34)cc2)c1C (stereo not drawn)", "Label Value": "0 (no)"}
{"Compound": "CCCC(=O)c1cnn(-c2ccc(NC(=O)c3cn(CC(=O)N4CCN(C)CC4)c4cc(F)c(Cl)cc34)cc2)c1C", "Label Value": "1 (yes)"}
{"Compound": "CCCC(=O)c1cnn(-c2ccc(NC(=O)c3cn(CC(=O)N4CCN(C)CC4)c4cc(C)c(C)cc34)cc2)c1C.Cl", "Label Value": "0 (no)"}
{"Compound": "CCCC(=O)c1cnn(-c2ccc(NC(=O)c3cn(CC(=O)N4CCN(C)CC4)c4ccc(Cl)cc34)cc2)c1C", "Label Value": "1 (yes)"}
{"Compound": "CCCC(=O)c1cnn(-c2ccc(NC(=O)c3cn(CC(=O)N4CCN(C)CC4)c4ccc(C)cc34)cc2)c1C.Cl", "Label Value": "0 (no)"}
{"Compound": "CCCC(=O)c1cnn(-c2ccc(NC(=O)c3cn(CC(=O)N4CCN(C)CC4)c4ccc(Cl)cc34)c(C#N)c2)c1C", "Label Value": "0 (no)"}

--- query ---
## Task Record "CCCC(=O)c1cnn(-c2ccc(NC(=O)c3cn(CC(=O)N(C)C)c4cc(C)c(C)cc34)cc2)c1C" : is its Papp strictly below 3 ×10⁻⁶ cm/s?
## Result 0 (no)
